Reported IC50 by item:
Tested on: Trypanosoma cruzi
Assay: Antitrypanosomal activity against Trypanosoma cruzi Tulahuen amastigotes transfected with Escherichia coli beta-galactosidase LacZ gene infected in monkey LLC-MK2 cells assessed as inhibition of amastigotes growth incubated for 72 hrs by absorbance based microplate reader analysis
Assay type: functional, organism-based
Conditions: LLC-MK2, 72 h
Please report the result as a number followed by the unit.

O=[N+]([O-])c1ncn(Cc2cn(-c3ccc(C(F)(F)F)cc3)nn2)n1
3600 nM
O=[N+]([O-])c1ncn(Cc2cn(-c3ccc(Cl)c(C(F)(F)F)c3)nn2)n1
9890 nM

Q: Find the recorded IC50 belonging to COc1ccc(-n2cc(Cn3cnc([N+](=O)[O-])n3)nn2)cc1OC and report it.
Result: 1120 nM

Q: Repeat for the following compound: O=[N+]([O-])c1ncn(Cc2cn(-c3ccccc3)nn2)n1
Result: 1350 nM

Q: Repeat for the following compound: O=[N+]([O-])c1ncn(Cc2cn(-c3ccc(F)cc3)nn2)n1
Result: 1110 nM

Q: Repeat for the following compound: COc1cccc(-n2cc(Cn3cnc([N+](=O)[O-])n3)nn2)c1
Result: 7930 nM

Q: Repeat for the following compound: CCOC(=O)c1ccc(-n2cc(Cn3cnc([N+](=O)[O-])n3)nn2)cc1
Result: 38400 nM

Q: Repeat for the following compound: O=[N+]([O-])c1ncn(Cc2cn(-c3ccc(Cl)cc3)nn2)n1
Result: 310 nM

Q: Repeat for the following compound: O=[N+]([O-])c1ccc(-n2cc(Cn3cnc([N+](=O)[O-])n3)nn2)cc1
Result: 610 nM

Q: Repeat for the following compound: O=[N+]([O-])c1cccc(-n2cc(Cn3cnc([N+](=O)[O-])n3)nn2)c1
Result: 24400 nM

* * *

Tested on: Trypanosoma cruzi
Assay: Antitrypanosomal activity against Trypanosoma cruzi Tulahuen amastigotes transfected with Escherichia coli beta-galactosidase LacZ gene infected in monkey LLC-MK2 cells assessed as inhibition of amastigotes growth incubated for 72 hrs by absorbance based microplate reader analysis
Assay type: functional, organism-based
Settings: LLC-MK2, 72 h
pIC50: −log10 of the molar value.
EXPERIMENTAL_READOUT: pIC50

Worked cases, answers included:
CS(=O)(=O)c1ccc(-n2cc(Cn3cnc([N+](=O)[O-])n3)nn2)cc1
< 4.30
NS(=O)(=O)c1ccc(-n2cc(Cn3cnc([N+](=O)[O-])n3)nn2)cc1
< 4.30

Q: Find the recorded pIC50 belonging to O=C(O)c1ccc(-n2cc(Cn3cnc([N+](=O)[O-])n3)nn2)cc1 and report it.
Result: < 4.30

Just for reference, ChEMBL document CHEMBL5528040 is where these values come from.
